I'd be grateful if you could share measured half-life for these entries.
assay details: T1/2 in plasma (mouse)
Assay type: in vitro ADME
test parameters: mouse, plasma; 1 μM peptide, 37° C.
From the text: Take all measurements in duplicate.
Where a SMILES comes first, the peptide text is derived from it.
Answer in h, number only, no unit symbol.

## Input Need half-life, item CC(=O)N[C@@H](CO)C(=O)N[C@H](C(=O)N[C@H](C(N)=O)[C@@H](C)O)C(C)C [SEQ ID NO. 5, Ac-SVT-NH2] (Ac-Ser-Val-Thr-NH2)
## Output 1.98

## Input Need half-life, item CC(C)C[C@H](NC(=O)[C@@H](N)CO)C(=O)N[C@H](C(N)=O)[C@@H](C)O [SEQ ID NO. 15, H-SLT-NH2] (H-Ser-Leu-Thr-NH2)
## Output 0.117

## Input Need half-life, item CC(C)[C@H](NC(=O)[C@@H](N)[C@@H](C)O)C(=O)N[C@H](C(N)=O)[C@@H](C)O [SEQ ID NO. 8, H-TVT-NH2] (H-Thr-Val-Thr-NH2)
## Output 0.283

## Input Need half-life, item CC(C)[C@H](NC(=O)[C@@H](N)CO)C(=O)N[C@@H](CO)C(N)=O [SEQ ID NO. 9, H-SVS-NH2] (H-Ser-Val-Ser-NH2)
## Output 1.72
